Reported fold affinity vs original values for the following binders.
target: binding partner of C5A (XPA23); assay: Biacore
# value in fold; strip the unit string

C5A (XPA23) VH G102N (antibody, V domains shown) VH: EVQLLESGGGLVQPGGSLRLSCAASGFTFSKYFMFWVRQAPGKGLEWVSVISPSGGMTRYADSVKGRFTISRDNSKNTLYLQMNSLRAEDTAVYYCARVGYNGNSDYWGQGTLVTVSS VL: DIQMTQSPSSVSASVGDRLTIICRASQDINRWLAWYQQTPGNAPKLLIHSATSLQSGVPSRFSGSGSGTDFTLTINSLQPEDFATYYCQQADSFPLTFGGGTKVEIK	1.17

# input for lookup
Input: I would be grateful if you could share the reported fold affinity vs original for C5A (XPA23) VH S54W (antibody, V domains shown) VH: EVQLLESGGGLVQPGGSLRLSCAASGFTFSKYFMFWVRQAPGKGLEWVSVISPWGGMTRYADSVKGRFTISRDNSKNTLYLQMNSLRAEDTAVYYCARVGYGGNSDYWGQGTLVTVSS VL: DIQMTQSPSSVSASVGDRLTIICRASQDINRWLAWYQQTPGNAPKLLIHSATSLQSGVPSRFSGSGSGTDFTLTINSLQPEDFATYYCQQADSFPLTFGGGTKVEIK .
Output: 1.07
